Entries and their measured cGAS-100 nM: averaged IP-10 levels relative to ISD70 follow.
biological target: cGAS (Homo sapiens); test: ISD70-driven IP-10 (and IFN-β) production in THP-1 cells, ELISA; assay type: cell-based; design: endogenous in cells; host or cells: THP-1 (undifferentiated); details: THP-1; 100 nM ASO overnight, then ISD70 2.5 μg/ml 7-8 h; percentage of ISD70 only
Sequence (Q8N884 whole entry): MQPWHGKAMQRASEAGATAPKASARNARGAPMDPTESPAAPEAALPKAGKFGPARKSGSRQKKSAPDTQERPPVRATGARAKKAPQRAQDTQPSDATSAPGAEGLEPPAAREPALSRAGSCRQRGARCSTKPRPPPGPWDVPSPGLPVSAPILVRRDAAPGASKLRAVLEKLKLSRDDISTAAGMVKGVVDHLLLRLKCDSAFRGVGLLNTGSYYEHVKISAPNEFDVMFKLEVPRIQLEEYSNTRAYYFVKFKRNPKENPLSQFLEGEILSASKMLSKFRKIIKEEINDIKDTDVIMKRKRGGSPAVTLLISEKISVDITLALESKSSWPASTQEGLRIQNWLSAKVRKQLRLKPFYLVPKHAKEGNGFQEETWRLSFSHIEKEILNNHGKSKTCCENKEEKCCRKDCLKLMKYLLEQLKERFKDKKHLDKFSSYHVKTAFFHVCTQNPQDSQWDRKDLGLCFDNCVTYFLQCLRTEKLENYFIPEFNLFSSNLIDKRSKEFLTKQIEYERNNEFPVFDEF
In the oligonucleotide strings, read from the 5' end, every base follows the letter of its sugar. An asterisk marks phosphorothioate; unmarked linkages are phosphodiester. Other units and linkages are bracketed, terminal groups are in braces. A string of capitals states the bases alone. d = 2'-deoxy (DNA); m = 2'-O-methyl
Give your result in % as a bare value.

{"columns": ["substance", "value.reported"],
 "data": [
  ["mA*mU*mA*mU*mC*T*G*C*T*G*C*C*C*A*C*mC*mU*mU*mC*mU (AUAUCTGCTGCCCACCUUCU; antisense; sugars from the 5' end m5 d10 m5, all phosphorothioate, methylation of C not given here) [[CDKN2B-AS1]831]", 108.01],
  ["mC*mA*mC*mC*mC*T*T*C*T*C*T*C*T*G*G*mU*mC*mC*mC*mA (CACCCTTCTCTCTGGUCCCA; antisense; sugars from the 5' end m5 d10 m5, all phosphorothioate, methylation of C not given here) [[LINC-PINT]116]", 97.19],
  ["mG*mU*mU*mC*mA*G*T*C*A*G*A*T*C*G*C*mU*mG*mG*mG*mA (mG*mU*mU*mC*mA*dG*dT*dC*dA*dG*dA*dT*dC*dG*dC*mU*mG*mG*mG*mA) [[LINC-PINT]412 KL]", 93.74],
  ["mA*mA*mU*mA*mU*C*T*G*C*T*G*C*C*C*A*mC*mC*mU*mU*mC (mA*mA*mU*mA*mU*dC*dT*dG*dC*dT*dG*dC*dC*dC*dA*mC*mC*mU*mU*mC; antisense) [[CDKN2B-AS1]832]", 83.17]
]}

Alright, here's another substance for you.
Quick one: cGAS-100 nM: averaged IP-10 levels relative to ISD70 of mA*mA*mA*mG*mC*A*G*T*C*T*C*C*A*T*G*mU*mC*mC*mC*mA (mA*mA*mA*mG*mC*dA*dG*dT*dC*dT*dC*dC*dA*dT*dG*mU*mC*mC*mC*mA; antisense) [[CDKN2B-AS1]2237] ?
70.95

====

target: human TLR9 (Homo sapiens, UniProt Q9NR96); construct: HA; host or cells: 293XL-hTLR9-HA (HEK293); assay: HEK-TLR9 NF-κB-luciferase reporter, ODN2006 stimulation; type: cell-based; settings: MOE-modified ASO at 100 nM; averaged NF-κB-Luciferase relative to ODN2006 condition
Sequence (Q9NR96 26-1032): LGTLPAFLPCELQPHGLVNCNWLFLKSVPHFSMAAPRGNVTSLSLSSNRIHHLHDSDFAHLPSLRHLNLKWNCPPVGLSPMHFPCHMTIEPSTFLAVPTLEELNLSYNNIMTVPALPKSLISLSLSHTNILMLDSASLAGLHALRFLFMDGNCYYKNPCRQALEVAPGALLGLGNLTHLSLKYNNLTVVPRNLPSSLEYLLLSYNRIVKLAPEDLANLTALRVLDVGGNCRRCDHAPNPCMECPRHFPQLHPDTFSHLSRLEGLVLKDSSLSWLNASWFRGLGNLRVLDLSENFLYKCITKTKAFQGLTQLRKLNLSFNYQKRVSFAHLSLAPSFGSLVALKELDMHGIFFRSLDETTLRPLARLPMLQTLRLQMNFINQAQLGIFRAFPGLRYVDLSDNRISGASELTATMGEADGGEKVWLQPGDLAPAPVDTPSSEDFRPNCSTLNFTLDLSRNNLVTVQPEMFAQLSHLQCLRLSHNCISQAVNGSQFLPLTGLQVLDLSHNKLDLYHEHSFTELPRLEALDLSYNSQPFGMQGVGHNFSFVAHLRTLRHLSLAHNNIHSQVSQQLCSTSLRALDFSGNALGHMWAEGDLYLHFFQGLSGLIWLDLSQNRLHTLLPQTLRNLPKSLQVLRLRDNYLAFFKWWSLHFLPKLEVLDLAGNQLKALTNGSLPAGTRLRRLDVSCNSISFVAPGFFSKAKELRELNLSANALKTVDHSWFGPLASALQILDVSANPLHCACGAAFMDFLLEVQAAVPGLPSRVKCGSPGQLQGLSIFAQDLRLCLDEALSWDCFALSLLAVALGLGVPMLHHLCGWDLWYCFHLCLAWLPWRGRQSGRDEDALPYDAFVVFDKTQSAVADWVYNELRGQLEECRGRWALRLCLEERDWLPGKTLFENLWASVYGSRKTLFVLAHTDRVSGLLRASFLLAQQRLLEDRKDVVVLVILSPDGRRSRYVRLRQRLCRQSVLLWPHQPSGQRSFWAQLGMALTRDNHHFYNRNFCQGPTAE
Returns the class for an entry based on its TLR9 100 nM. Class ranges: category 1 (below 0.5), category 2 (0.5 to below 0.7), category 3 (0.7 or more)

These solved cases illustrate the format of a correct answer.
{"columns": ["sequence.record", "qualitative.label"],
 "data": [
  ["GGTGGTGGCCACCCATCTCA (antisense; 2'-MOE modified, pattern not given here) [CTNN2B-2479 MOE]", "category 3"],
  ["TTGCACACTTCGTACCCAAA (antisense; 2'-MOE modified, pattern not given here) [CAMSAP1-4915 MOE]", "category 3"],
  ["GGTGGTCCACAACCCCTTTC (antisense; 2'-MOE modified, pattern not given here) [MB21D1-697 MOE]", "category 1"],
  ["TGTGATGGCCTCCCATCTCC (antisense; 2'-MOE modified, pattern not given here) [HPRT-332 MOE]", "category 2"],
  ["AACACTTCGTGGGGTCCTTT (antisense; 2'-MOE modified, pattern not given here) [HPRT-664 MOE]", "category 1"],
  ["AGTCGTAGTTGCTTCCTAAC (antisense; 2'-MOE modified, pattern not given here) [MB21D1-1181 MOE]", "category 2"],
  ["ACCCACTTGGCAGACCATCA (antisense; 2'-MOE modified, pattern not given here) [CTNN2B-1575 MOE]", "category 3"],
  ["TGGGTTACGGCTCAGTATGG (antisense; 2'-MOE modified, pattern not given here) [CAMSAP1-4295 MOE]", "category 1"],
  ["AGATCTGGCAGCCCATCAAC (antisense; 2'-MOE modified, pattern not given here) [CTNN2B-2516 MOE]", "category 2"],
  ["TCCGGCCTCGGAAGCTCTCT (antisense; 2'-MOE modified, pattern not given here) [MB21D1-168 MOE]", "category 1"]
]}

Which class holds CCAACACTTCGTGGGGTCCT (antisense; 2'-MOE modified, pattern not given here) [HPRT-666 MOE] ?
category 2

Which class holds GTCCACATCCTGTGGCTCGT (antisense; 2'-MOE modified, pattern not given here) [CAMSAP1-2906 MOE] ?
category 2

====

Entries and their measured TLR7-100 nM: averaged NF-κB-Luciferase relative to R848 follow.
Molecular target: human TLR7 (Homo sapiens)
Construct: HA; host or cells: 293XL-hTLR7-HA (HEK293)
Sequence (Q9NYK1 27-1049): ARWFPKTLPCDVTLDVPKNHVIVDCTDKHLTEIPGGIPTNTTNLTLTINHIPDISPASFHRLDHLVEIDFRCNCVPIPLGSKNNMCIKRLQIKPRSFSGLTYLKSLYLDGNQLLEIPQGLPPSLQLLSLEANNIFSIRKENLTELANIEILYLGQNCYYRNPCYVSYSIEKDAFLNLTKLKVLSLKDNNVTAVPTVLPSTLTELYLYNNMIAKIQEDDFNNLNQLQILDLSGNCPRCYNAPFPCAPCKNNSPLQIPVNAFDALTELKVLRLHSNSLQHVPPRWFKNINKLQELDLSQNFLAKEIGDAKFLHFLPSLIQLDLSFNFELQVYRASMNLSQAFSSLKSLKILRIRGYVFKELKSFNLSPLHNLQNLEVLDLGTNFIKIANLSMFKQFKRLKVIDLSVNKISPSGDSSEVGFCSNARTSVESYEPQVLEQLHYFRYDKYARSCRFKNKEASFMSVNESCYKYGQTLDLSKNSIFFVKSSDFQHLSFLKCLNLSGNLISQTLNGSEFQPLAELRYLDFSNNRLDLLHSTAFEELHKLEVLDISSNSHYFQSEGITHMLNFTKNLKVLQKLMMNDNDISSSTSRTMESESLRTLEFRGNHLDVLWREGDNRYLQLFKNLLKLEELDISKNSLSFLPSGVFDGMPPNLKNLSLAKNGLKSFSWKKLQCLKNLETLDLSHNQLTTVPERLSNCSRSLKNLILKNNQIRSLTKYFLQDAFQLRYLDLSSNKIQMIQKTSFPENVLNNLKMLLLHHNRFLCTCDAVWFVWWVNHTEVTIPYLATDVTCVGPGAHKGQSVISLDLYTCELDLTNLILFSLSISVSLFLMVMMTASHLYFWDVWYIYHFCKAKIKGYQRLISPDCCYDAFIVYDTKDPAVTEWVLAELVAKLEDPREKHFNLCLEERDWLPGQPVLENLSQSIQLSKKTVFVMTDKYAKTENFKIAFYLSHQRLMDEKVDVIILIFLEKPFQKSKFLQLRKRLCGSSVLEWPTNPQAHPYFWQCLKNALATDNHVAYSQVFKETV
Assay: HEK-TLR7 NF-κB-luciferase reporter, R848 stimulation
Assay type: cell-based
Conditions: HEK-TLR7; 100 nM ASO; percentage of R848 without ASO (Alharbi et al., 2020)
Description: In such examples, inhibition of TLR7 activity can be identified by observation of an overall decreased TLR7 response of the cell population, or a lower proportion of cells having TLR7-positive activity as compared to positive control condition in which cells are treated with TLR7 agonist in the absence of the oligonucleotide (or in the presence of an appropriate control inhibitory agent). […] TLR7 activity can be determined by a luciferase assay, which measures activated NF-κB by luminescence. […]
In the oligonucleotide strings, read from the 5' end, every base follows the letter of its sugar. An asterisk marks phosphorothioate; unmarked linkages are phosphodiester. Other units and linkages are bracketed, terminal groups are in braces. A string of capitals states the bases alone. d = 2'-deoxy (DNA); m = 2'-O-methyl
Give your result in % as a bare value.

These solved cases illustrate the format of a correct answer.
{"columns": ["substance", "measured.on", "value.reported"],
 "data": [
  ["mC*mC*mC*mU*mU*C*T*C*T*C*T*G*G*T*C*mC*mC*mA*mU*mC (mC*mC*mC*mU*mU*dC*dT*dC*dT*dC*dT*dG*dG*dT*dC*mC*mC*mA*mU*mC; antisense) [[LINC-PINT]114]", "human TLR7 (Homo sapiens)", 49.59],
  ["mG*mG*mA*mU*mU*A*A*A*A*C*A*G*A*T*T*mA*mA*mU*mA*mC (GGAUUAAAACAGATTAAUAC; sugars from the 5' end m5 d10 m5, all phosphorothioate, methylation of C not given here) [[CDKN2B-AS1]1774]", "human TLR7 (Homo sapiens)", 27.16],
  ["mC*mA*mG*mG*mC*C*T*C*C*A*G*T*G*T*C*mU*mU*mC*mU*mC (mC*mA*mG*mG*mC*dC*dT*dC*dC*dA*dG*dT*dG*dT*dC*mU*mU*mC*mU*mC; antisense) [[CDKN2B-AS1]2219]", "human TLR7 (Homo sapiens)", 54.11]
]}

Quick one: TLR7-100 nM: averaged NF-κB-Luciferase relative to R848 of mA*mA*mA*mA*mG*A*T*T*A*T*C*T*T*C*T*mU*mU*mU*mA*mA (AAAAGATTATCTTCTUUUAA; sugars from the 5' end m5 d10 m5, all phosphorothioate, methylation of C not given here) [[CDKN2B-AS1]2133] ?
47.41

====

target: cGAS (Homo sapiens); assay: ISD70-driven IP-10 (and IFN-β) production in THP-1 cells, ELISA; assay type: cell-based; set-up: endogenous in cells; host or cells: THP-1 (undifferentiated); conditions: MOE-modified ASO at 100 nM; averaged IP-10 levels relative to ISD70 condition
Returns the class for an entry based on its cGAS 100 nM. Class ranges: Low (below 0.4), Mid (0.4 to below 0.5), High (0.5 or more)

These solved cases illustrate the format of a correct answer.
{"columns": ["sequence.record", "measured.on", "qualitative.label"],
 "data": [
  ["CAATGTGATGGCCTCCCATC (antisense; 2'-MOE modified, pattern not given here) [HPRT-335 MOE]", "cGAS (Homo sapiens)", "Low"],
  ["GGGTATCGAAAGAGTCTGGA (antisense; 2'-MOE modified, pattern not given here) [EGFR-3908 MOE]", "cGAS (Homo sapiens)", "Mid"],
  ["CCAACACTTCGTGGGGTCCT (antisense; 2'-MOE modified, pattern not given here) [HPRT-666 MOE]", "cGAS (Homo sapiens)", "High"],
  ["GGTGTCCTTGCACGTGGCTT (antisense; 2'-MOE modified, pattern not given here) [EGFR-1016 MOE]", "cGAS (Homo sapiens)", "Low"],
  ["ATGTCCCGCCACTGGATGCT (antisense; 2'-MOE modified, pattern not given here) [EGFR-727 MOE]", "cGAS (Homo sapiens)", "High"],
  ["GGTGGTGGCCACCCATCTCA (antisense; 2'-MOE modified, pattern not given here) [CTNN2B-2479 MOE]", "cGAS (Homo sapiens)", "Mid"]
]}

Next sequence, please.
Which class holds ATGTCCCCTGTTGACTGGTC (antisense; 2'-MOE modified, pattern not given here) [HPRT-489 MOE] ?
High

Source of measurements: patent US20240384268A1
